MIC values for the molecules below.
Test system: C. albicans ATCC 90028
Assay: microbe, parasite or virus in culture
Type: cell-based
Conditions: ATCC 90028, pH 7
Method: The test organisms consisted of strains from the Micromyx collection. Reference isolates were originally received from the American Type Culture Collection (ATCC; Manassas, Va.). Organisms received at Micromyx were initially streaked for isolation on Sabouraud dextrose or potato dextrose agar. […] A standardized inoculum of each organism was prepared. […] For the Aspergillus isolates, previously prepared and quantitated suspensions were used to make dilutions in RPMI to reach 20× the final concentration. […]
Report the value in mg/L with no unit label.

Solved entries:
CC[C@H](C)C[C@H](C)CCCCCCCCC(=O)N[C@H]1C[C@@H](O)[C@@H](NCCN)NC(=O)[C@@H]2[C@@H](O)CCN2C(=O)[C@H]([C@H](O)CCNC(=O)CCNC(=O)[C@H](Cc2ccccc2)NC(=O)[C@H](CC(C)C)NC(=O)[C@H](CCSC)NC=O)NC(=O)[C@H]([C@H](O)[C@@H](O)c2ccc(O)cc2)NC(=O)[C@@H]2C[C@@H](O)CN2C(=O)[C@H]([C@@H](C)O)NC1=O | 2
CC[C@H](C)C[C@H](C)CCCCCCCCC(=O)N[C@H]1C[C@@H](O)[C@@H](NCCN)NC(=O)[C@@H]2[C@@H](O)CCN2C(=O)[C@H]([C@H](O)CCNC(=O)[C@H](CCCCN)NC=O)NC(=O)[C@H]([C@H](O)[C@@H](O)c2ccc(O)cc2)NC(=O)[C@@H]2C[C@@H](O)CN2C(=O)[C@H]([C@@H](C)O)NC1=O | 0.12

Continue with the next molecule.
Prompt: Given the entry CC[C@H](C)C[C@H](C)CCCCCCCCC(=O)N[C@H]1C[C@@H](O)[C@@H](NCCN)NC(=O)[C@@H]2[C@@H](O)CCN2C(=O)[C@H]([C@H](O)CCNC(=O)CCNC(=O)[C@H](Cc2ccccc2)NC(=O)[C@H](CC(C)C)NC(=O)[C@H](CCSC)NC(C)=O)NC(=O)[C@H]([C@H](O)[C@@H](O)c2ccc(O)cc2)NC(=O)[C@@H]2C[C@@H](O)CN2C(=O)[C@H]([C@@H](C)O)NC1=O , what MIC was observed with C. albicans ATCC 90028?
Completion: 2

---

% Neutrophil Migration values for the compounds below.
Tested on: Neutrophils purified from human peripheral blood
Test: Human Neutrophil Transwell Migration Assay
Assay type: cell-based
Details: conc 0.001 μg/mL; 37° C., 45 minutes; % of the maximum migration possible
Description: Neutrophils were purified from human peripheral blood utilizing PolymorphPrep. Red blood cells were lysed with a lysis buffer and the cells were washed, counted and resuspended in assay buffer. […] The plates were incubated at 37° C. for 45 minutes to allow for migration. After this time, migration was confirmed visually and then an aliquot (⅙^th of total cells) from each well was taken for ATP detection via luminescence with ATPlite (PerkinElmer) to quantify the number of migrated cells. […]
Report the value in % with no unit label.

Solved entries:
CC[C@H](C)C[C@H](C)CCCCCCCCC(=O)N[C@H]1C[C@@H](O)[C@@H](OCCN)NC(=O)[C@@H]2[C@@H](O)CCN2C(=O)[C@H]([C@H](O)CCNC(=O)[C@H](Cc2ccccc2)NC(=O)[C@H](CC(C)C)NC(=O)[C@H](CC[S+](C)[O-])NC=O)NC(=O)[C@H]([C@H](O)[C@@H](O)c2ccc(O)cc2)NC(=O)[C@@H]2C[C@@H](O)CN2C(=O)[C@H]([C@@H](C)O)NC1=O (stereo partly drawn) [Compound 30] | 105.2
CC[C@H](C)C[C@H](C)CCCCCCCCC(=O)N[C@H]1C[C@@H](O)[C@@H](NCCNC(=O)CCNC(=O)[C@H](Cc2ccccc2)NC(=O)[C@H](CC(C)C)NC(=O)[C@H](CCSC)NC=O)NC(=O)[C@@H]2[C@@H](O)CCN2C(=O)[C@H]([C@H](O)CCN)NC(=O)[C@H]([C@H](O)[C@@H](O)c2ccc(O)cc2)NC(=O)[C@@H]2C[C@@H](O)CN2C(=O)[C@H]([C@@H](C)O)NC1=O [Compound 4] | 3.8

Prompt: What value of % Neutrophil Migration has been recorded for this entry: CC[C@H](C)C[C@H](C)CCCCCCCCC(=O)N[C@H]1C[C@@H](O)[C@@H](NCCN)NC(=O)[C@@H]2[C@@H](O)CCN2C(=O)[C@H]([C@H](O)CCNC(=O)[C@H](CCSC)NC(=O)[C@H](CC(C)C)NC(=O)[C@H](CCSC)NC=O)NC(=O)[C@H]([C@H](O)[C@@H](O)c2ccc(O)cc2)NC(=O)[C@@H]2C[C@@H](O)CN2C(=O)[C@H]([C@@H](C)O)NC1=O [Compound 28]
Completion: −0.4
